- Tested on: RPMI-8226
- testSummary: NCI tumour cell line growth inhibition, 48 h
Activity calls are given as the source filed them. Rule as the data show it: active = GI50 up to about 1.1 µM and inactive = higher.
Listing of recorded GI50 by entry.

CC1(C)N/C(=C\C=O)C(C)(C)N1O	> 100 µM (inactive)
O=C(O)c1ccc2c(c1C(=O)O)C(=O)OC2(c1ccc(O)cc1)c1ccc(O)cc1	> 100 µM (inactive)
C/C(=C\C(=O)O)C(=O)N(C)c1ccccc1I	> 100 µM (inactive)
COC1C2c3ccccc3C(C#N)(Cc3ccc4c(c32)OCO4)N1C(=O)c1ccccc1 (stereo unspecified)	16.3 µM (inactive)
CC(C)OC(=O)C1=C2c3ncccc3C(=O)N2[C@@H](Cl)[C@H](Cl)[C@H]1Cl	21.8 µM (inactive)

What measured GI50 goes with N#COc1ccc(Oc2ccccc2)cc1 ?
30.4 µM (inactive)

# GI50 lookup, item CSc1ncc2c(C#N)c3n(C)c4ccccc4n3c(=O)c2n1
> 100 µM (inactive)

Which GI50 value belongs to FC(F)(Sc1ccccn1)c1nc2ccccc2o1 ?
> 100 µM (inactive)

Report GI50 for CNC1NC(=O)c2ccccc2N1Cc1ccc(F)cc1 (stereo unspecified) please.
> 100 µM (inactive)

GET /values?readout=GI50&item= NCC(O)CNCC/C=C\C/C=C\C/C=C\C/C=C\C/C=C\C/C=C\CCCCC/C=C\CCNCC(O)CN (stereo unspecified)
1.66 µM (inactive)

Recorded GI50 for CC1=CC=NN2C(=O)[C@H](C)C2C1 (stereo partly specified) , please?
> 100 µM (inactive)

###

- System: TK-10
- testSummary: NCI tumour cell line growth inhibition, 48 h
The source made the active and inactive calls. No stated cut-off is given here; in the data, active = GI50 up to about 1.1 µM and inactive = higher.
A collection of compounds and their measured GI50

CN(C)c1ccc2c(SCC(=O)OCC(=O)[C@@]3(O)CC[C@H]4[C@@H]5CCC6=CC(=O)C=C[C@]6(C)[C@H]5C(=O)C[C@@]43C)c3ccc(N(C)C)cc3nc2c1	16.3 µM (inactive)
CSc1c(C)c(C)nn1-c1ccccc1	> 100 µM (inactive)
CC(=O)Oc1ccc2c(c1)[nH]c1c3ccc(OC(C)=O)cc3oc(=O)c21	49.9 µM (inactive)
N#CCC(=O)c1cc(OCc2cc(OCc3ccc(Br)cc3)cc(OCc3ccc(Br)cc3)c2)cc(OCc2cc(OCc3ccc(Br)cc3)cc(OCc3ccc(Br)cc3)c2)c1	> 100 µM (inactive)

Now consider the entry below.
Please give the measured GI50 for this compound: CC(=O)N1CCC2(c3ccccc3N(C(C)=O)C2c2ccc(O)cc2)C1C(=O)O (stereo not drawn)
> 100 µM (inactive)

###

- Test system: XF498
- testSummary: NCI tumour cell line growth inhibition, 48 h
Activity calls are given as the source filed them. Cut-off read from the data, not from the text of the source: active = GI50 up to about 1.1 µM and inactive = higher.
parameter: GI50

Here is how some compounds turned out for GI50.
C=C1CCC2(C(C)=O)COC1(C)O2 (stereo not drawn)	62.2 µM (inactive)
COC(=O)C(CCC1(C)OCCO1)C(C)=O (stereo not drawn)	> 100 µM (inactive)
CC1CCC2CC(=O)OC([C@@H]3C(=O)O[C@@H](C4=CCCC4)C4C(C)CCC43)C12 (stereo partly drawn)	> 100 µM (inactive)
CN1CCS(=O)(=O)NC(Cc2ccccc2)C(=O)N2CCCC2C1=O (stereo not drawn)	> 100 µM (inactive)
Nc1nc(Cl)cc(NCCCCCCNc2cc(Cl)nc(N)n2)n1	30.6 µM (inactive)
C/C=C/C1(C)/C(=N\O)C(C)(CCC)C(=O)N1O (stereo not drawn)	> 100 µM (inactive)
CCOC(=O)NC(=O)c1cn(-c2ccc(CCOC(=O)CCCCCCCCC(=O)OCCc3ccc(-n4cc(C(=O)NC(=O)OCC)c(=O)[nH]c4=O)cc3)cc2)c(=O)[nH]c1=O	> 100 µM (inactive)

Read the next record carefully.
Which GI50 value belongs to C[C@@H]1C[C@@H](O)[C@]2(O)O[C@@H]3C[C@@]4(C=O)[C@@H](CC[C@@H]5[C@@H]4CC[C@]4(C)[C@@H](C6=CC(=O)OC6)CC[C@]54O)C[C@H]3O[C@@H]2O1 ?
0.0159 µM (active)
